Relative Potency values by entry
Molecular target: VLA-4 receptor (Homo sapiens, UniProt P05556+P13612)
Construct: inflammatory cells that contain the VLA-4 receptor [Jurkat cells; host or cells: Jurkat cells (human T lymphoblastic line)
Sequence (P13612 34-1032): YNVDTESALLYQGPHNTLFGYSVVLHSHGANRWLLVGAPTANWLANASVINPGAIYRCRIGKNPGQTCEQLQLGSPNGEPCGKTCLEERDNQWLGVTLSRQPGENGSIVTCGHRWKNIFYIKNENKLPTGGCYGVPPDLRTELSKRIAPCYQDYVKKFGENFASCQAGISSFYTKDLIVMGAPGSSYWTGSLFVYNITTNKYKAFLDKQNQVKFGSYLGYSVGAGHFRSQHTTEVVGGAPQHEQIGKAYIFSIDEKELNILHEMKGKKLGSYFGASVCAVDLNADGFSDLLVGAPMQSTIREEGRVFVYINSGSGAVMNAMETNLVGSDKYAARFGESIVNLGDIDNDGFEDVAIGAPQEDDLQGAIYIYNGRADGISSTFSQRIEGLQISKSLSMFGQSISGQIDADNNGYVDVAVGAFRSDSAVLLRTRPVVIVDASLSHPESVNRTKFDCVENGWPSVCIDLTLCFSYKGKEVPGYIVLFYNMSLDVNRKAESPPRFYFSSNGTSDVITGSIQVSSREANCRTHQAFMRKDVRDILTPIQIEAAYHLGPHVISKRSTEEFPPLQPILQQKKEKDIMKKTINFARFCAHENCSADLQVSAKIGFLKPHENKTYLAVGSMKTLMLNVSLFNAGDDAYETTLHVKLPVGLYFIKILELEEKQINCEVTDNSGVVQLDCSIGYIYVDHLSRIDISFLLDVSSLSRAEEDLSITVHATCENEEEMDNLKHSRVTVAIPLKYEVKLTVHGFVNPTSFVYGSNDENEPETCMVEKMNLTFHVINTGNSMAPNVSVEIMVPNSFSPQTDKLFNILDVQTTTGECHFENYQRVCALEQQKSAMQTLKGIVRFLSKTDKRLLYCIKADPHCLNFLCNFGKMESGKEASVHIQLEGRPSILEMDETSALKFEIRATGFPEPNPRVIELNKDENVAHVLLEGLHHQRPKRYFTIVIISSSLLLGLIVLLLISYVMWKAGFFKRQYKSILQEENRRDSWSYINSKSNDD
Sequence (P05556 21-798): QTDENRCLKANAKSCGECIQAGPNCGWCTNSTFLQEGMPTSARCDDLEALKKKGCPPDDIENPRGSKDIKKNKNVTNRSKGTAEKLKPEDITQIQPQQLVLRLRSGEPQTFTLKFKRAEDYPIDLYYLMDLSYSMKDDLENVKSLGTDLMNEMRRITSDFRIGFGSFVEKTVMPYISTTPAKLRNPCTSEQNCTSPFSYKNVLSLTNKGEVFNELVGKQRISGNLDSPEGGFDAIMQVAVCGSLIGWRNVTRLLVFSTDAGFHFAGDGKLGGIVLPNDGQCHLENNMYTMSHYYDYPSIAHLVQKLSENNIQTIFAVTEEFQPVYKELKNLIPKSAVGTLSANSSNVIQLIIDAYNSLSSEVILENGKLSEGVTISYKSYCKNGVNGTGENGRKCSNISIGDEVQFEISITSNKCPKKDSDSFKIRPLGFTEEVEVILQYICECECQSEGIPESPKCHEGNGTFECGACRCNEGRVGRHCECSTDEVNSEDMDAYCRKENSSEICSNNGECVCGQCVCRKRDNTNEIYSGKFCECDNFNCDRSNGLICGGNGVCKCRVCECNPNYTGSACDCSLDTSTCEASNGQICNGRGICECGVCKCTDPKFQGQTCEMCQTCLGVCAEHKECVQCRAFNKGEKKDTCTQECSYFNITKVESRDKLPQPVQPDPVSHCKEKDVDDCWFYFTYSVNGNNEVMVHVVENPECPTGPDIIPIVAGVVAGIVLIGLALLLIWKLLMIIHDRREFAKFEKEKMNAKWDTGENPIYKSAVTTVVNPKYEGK
Assay: In vitro binding assay: inhibition of binding of 51Cr-labeled Jurkat cells to solid phase-bound CS-1 compound (SEQ ID NO:1)
Type: cell-based
Details: prodrug compounds, potency before enzymatic conversion to active form; relative to SEQ ID NO:3 = 1
Square brackets hold non-standard residues; d marks the D form. Peptide text beside a SMILES is read from it. * marks the point of attachment. PhAc = O=C(Cc1ccccc1)*; X5 = CCCCCCCCCCCCO*
Enter a number only.

Input line: What value of Relative Potency has been reported for the following compound? CCCCCCCCCCCCOC(=O)C[C@H](NC(=O)[C@H](CC(C)C)NC(=O)Cc1ccccc1)C(=O)N[C@@H](Cc1ccccc1)C(=O)N1CCC[C@@H]1C(N)=O [1068.10] (PhAc-LD(X5)F[dP]-NH2)
Output line: 0

----------
Relative Potency values by entry
Target: VLA-4 receptor (Homo sapiens, UniProt P05556+P13612)
Construct: inflammatory cells that contain the VLA-4 receptor [Jurkat cells; host or cells: Jurkat cells (human T lymphoblastic line)
Assay: In vitro binding assay: inhibition of binding of 51Cr-labeled Jurkat cells to solid phase-bound CS-1 compound (SEQ ID NO:1)
Type: cell-based
Details: binding inhibition potency (IC50) normalized to standard compound of SEQ ID NO:3 = 1; multiple assays averaged; about one-tenth or less assigned zero
Square brackets hold non-standard residues; d marks the D form. Peptide text beside a SMILES is read from it. * marks the point of attachment. Cya = N[C@@H](CS(=O)(=O)O)C(=O)O; NMeD = CN[C@@H](CC(=O)O)C(=O)O; Piperidide = C1CCN(*)CC1; PhAc = O=C(Cc1ccccc1)*

See these solved cases before continuing.
CC(C)C[C@H](NC(=O)Cc1ccccc1)C(=O)N[C@@H](CC(=O)O)C(=O)N[C@@H](Cc1ccccc1)C(N)=O [997.12] (PhAc-Leu-Asp-Phe-NH2); .48
CC(C)C[C@H](NC(=O)Cc1ccccc1)C(=O)N[C@@H](CC(=O)O)C(=O)N[C@@H](Cc1ccccc1)C(=O)N1CCC[C@@H]1C(N)=O [896.52, N-phenylacetyl-Leu-Asp-Phe-D-Pro-NH2] (PhAc-LDF[dP]-NH2); 313
O=C(O)C[C@H](NC1CCN(C(=O)Cc2ccccc2)CC1)C(=O)N[C@@H](Cc1ccccc1)C(=O)N1CCCC1 [992.01]; 0
CC(C)C[C@H](NC(=O)Cc1ccccc1)C(=O)NC(C(=O)O)C(=O)N[C@@H](Cc1ccccc1)C(=O)N1CCCCC1 (some centres unmarked) [1026.02]; 0
CC(C)C[C@H](NC(=O)Cc1ccccc1)C(=O)N[C@@H](CS(=O)(=O)O)C(=O)N[C@@H](Cc1ccccc1)C(=O)N1CCCCC1 [1026.06] (PhAc-Leu-[Cya]-Phe-Piperidide); 0

Input line: What value of Relative Potency has been reported for the following compound? CC(C)C[C@H](NC(=O)Cc1ccccc1)C(=O)N(C)[C@@H](CC(=O)O)C(=O)N[C@@H](Cc1ccccc1)C(=O)N1CCC[C@@H]1C(N)=O [1190.06] (PhAc-L[NMeD]F[dP]-NH2)
Output line: 0

Input line: // same read-out, input: CC(C)C[C@H](NC(=O)Cc1ccccc1)C(=O)N[C@@H](CS)C(=O)N[C@@H](Cc1ccccc1)C(=O)N1CCC[C@@H]1C(N)=O [896.59] (PhAc-LCF[dP]-NH2)
Output line: 0

Input line: // same read-out, input: NC(=O)[C@H]1CCCN1C(=O)[C@H](Cc1ccccc1)NC(=O)[C@H](CC(=O)O)NC(=O)CCCCC1CCSS1 (some centres unmarked) [1056.09]
Output line: 1.1

----------
Target: VLA-4 receptor (Homo sapiens, UniProt P05556+P13612)
Construct: inflammatory cells that contain the VLA-4 receptor [Jurkat cells; host or cells: Jurkat cells (human T lymphoblastic line)
Experiment: In vitro binding assay: inhibition of binding of 51Cr-labeled Jurkat cells to solid phase-bound CS-1 compound (SEQ ID NO:1)
Format: cell-based
Settings: binding inhibition potency (IC50) normalized to standard compound of SEQ ID NO:3 = 1; multiple assays averaged; about one-tenth or less assigned zero
Threshold check on Relative Potency: at or above 20 gives 1, strictly below gives 0.

As a guide, the following entries are already answered.
CC(C)C[C@H](NC(=O)Cc1ccccc1)C(=O)N[C@@H](CC(=O)O)C(=O)N[C@@H](Cc1ccccc1)C(=O)N1CCN(CCOCCO)CC1; 1
CC(C)C[C@H](NC(=O)c1ccccc1)C(=O)N[C@@H](CC(=O)O)C(=O)N[C@H](C(=O)N1CCC[C@@H]1C(N)=O)C(C)C; 0
CC(C)C[C@H](NC(=O)Cc1ccccc1)C(=O)N[C@@H](CP(=O)(O)O)C(=O)N[C@@H](Cc1ccccc1)C(=O)N1CCCCC1; 0

We next turn to a different compound, shown below.
Input line: Item CC(C)C[C@H](NC(=O)Cc1ccccc1)C(=O)N[C@@H](CC(=O)O)C(=O)NC1CCCCN(CC(N)=O)C1=O (stereo partly drawn) with Relative Potency of 20 or above?
Output line: 1

----------
Target: VLA-4 receptor (Homo sapiens, UniProt P05556+P13612)
Construct: inflammatory cells that contain the VLA-4 receptor [Jurkat cells; host or cells: Jurkat cells (human T lymphoblastic line)
Assay: In vitro binding assay: inhibition of binding of 51Cr-labeled Jurkat cells to solid phase-bound CS-1 compound (SEQ ID NO:1)
Assay type: cell-based
Details: binding inhibition potency (IC50) normalized to standard compound of SEQ ID NO:3 = 1; multiple assays averaged; about one-tenth or less assigned zero
Square brackets hold non-standard residues; d marks the D form. Peptide text beside a SMILES is read from it. * marks the point of attachment. Nle = CCCC[C@H](N)C(=O)O; PhAc = O=C(Cc1ccccc1)*
Relative Potency values by entry
Enter a number only.

See these solved cases before continuing.
CC(C)C[C@H](NC(=O)Cc1ccccc1)C(=O)N[C@@H](CC(=O)O)C(=O)N[C@@H](Cc1ccccc1)C(=O)N1CCN(CC(=O)O)CC1; 2600
CC(C)C[C@H](NC(=O)Cc1ccccc1)C(=O)N[C@@H](CC(=O)O)C(=O)N[C@@H](Cc1ccccc1)C(=O)NCCCO; 25
CCCC[C@H](NC(=O)Cc1ccccc1)C(=O)N[C@@H](CC(=O)O)C(=O)N[C@@H](Cc1ccccc1)C(=O)N1CCC[C@@H]1C(N)=O [1160.02] (PhAc-[Nle]DF[dP]-NH2); 49

Now let's try a different one.
Input line: What value of Relative Potency has been reported for the following compound? CC(C)C[C@H](NC(=O)Cc1ccccc1)C(=O)NC(CC(=O)O)(CC(=O)O)C(=O)N[C@@H](Cc1ccccc1)C(=O)N1CCCCC1
Output line: 0

----------
Biological target: VLA-4 receptor (Homo sapiens, UniProt P05556+P13612)
Construct: inflammatory cells that contain the VLA-4 receptor [Jurkat cells; host or cells: Jurkat cells (human T lymphoblastic line)
Test: In vitro binding assay: inhibition of binding of 51Cr-labeled Jurkat cells to solid phase-bound CS-1 compound (SEQ ID NO:1)
Assay type: cell-based
Details: binding inhibition potency (IC50) normalized to standard compound of SEQ ID NO:3 = 1; multiple assays averaged; about one-tenth or less assigned zero
Square brackets hold non-standard residues; d marks the D form. Peptide text beside a SMILES is read from it. * marks the point of attachment. Cha = N[C@@H](CC1CCCCC1)C(=O)O; PhAc = O=C(Cc1ccccc1)*; Bz = O=C(c1ccccc1)*
endpointLabel: Relative Potency
Enter a number only.

See these solved cases before continuing.
CC(C)C[C@@H](CN[C@@H](CC(=O)O)C(=O)N[C@@H](Cc1ccccc1)C(=O)N1CCCCC1)NC(=O)Cc1ccccc1; 0
NC(=O)[C@H]1CCCN1C(=O)[C@H](Cc1ccccc1)NC(=O)[C@H](CC(=O)O)NC(=O)[C@H](CC1CCCCC1)NC(=O)c1ccccc1 [896.31] (Bz-[Cha]DF[dP]-NH2); 11
CC(C)C[C@H](NC(=O)Cc1ccccc1)C(=O)N[C@@H](CC(=O)O)C(=O)N[C@@H](Cc1ccccc1)C(=O)N1CCSCC1; 450
CC(C)C[C@H](NC(=O)Cc1ccccc1)C(=O)N[C@@H](CS(N)(=O)=O)C(=O)N[C@@H](Cc1ccccc1)C(=O)N1CCCCC1; 0

Now let's try a different one.
Input line: What value of Relative Potency has been reported for the following compound? CC(C)C[C@H](NC(=O)[C@H](CC(=O)O)NC(=O)Cc1ccccc1)C(=O)N[C@@H](Cc1ccccc1)C(=O)N1CCC[C@@H]1C(N)=O [N-phenylacetyl-Asp-Leu-Phe-D-Pro-NH2, reference compound] (PhAc-DLF[dP]-NH2)
Output line: 0

----------
Biological target: VLA-4 receptor (Homo sapiens, UniProt P05556+P13612)
Construct: inflammatory cells that contain the VLA-4 receptor [Jurkat cells; host or cells: Jurkat cells (human T lymphoblastic line)
Assay: In vitro binding assay: inhibition of binding of 51Cr-labeled Jurkat cells to solid phase-bound CS-1 compound (SEQ ID NO:1)
Format: cell-based
Conditions: binding inhibition potency (IC50) normalized to standard compound of SEQ ID NO:3 = 1; multiple assays averaged; about one-tenth or less assigned zero
Square brackets hold non-standard residues; d marks the D form. Peptide text beside a SMILES is read from it. * marks the point of attachment. NMeF = CN[C@@H](Cc1ccccc1)C(=O)O; Phg = N[C@H](C(=O)O)c1ccccc1; PhAc = O=C(Cc1ccccc1)*
endpointLabel: Relative Potency
Enter a number only.

See these solved cases before continuing.
CC(C)C[C@H](NC(=O)Cc1ccccc1)C(=O)N[C@@H](CC(=O)O)C(=O)N[C@H](C(=O)N1CCC[C@@H]1C(N)=O)c1ccccc1 [896.69] (PhAc-LD[Phg][dP]-NH2); 61
CC(C)C[C@H](NC(=O)Cc1ccccc1)C(=O)N[C@@H](CC(=O)O)C(=O)N(C)[C@@H](Cc1ccccc1)C(=O)N1CCC[C@@H]1C(N)=O [1190.05] (PhAc-LD[NMeF][dP]-NH2); 0

Now let's try a different one.
Input line: What value of Relative Potency has been reported for the following molecule? CC(C)C[C@H](NC(=O)c1ccccc1)C(=O)N[C@@H](CC(=O)O)C(=O)N[C@H](C(=O)N1CCC[C@H]1C(N)=O)C(C)C [896.35]
Output line: 16

The reported numbers originate from patent US5936065A.
